# SI BChE annotations
experimentalSystem: butyrylcholinesterase from equine serum (Equus caballus)
Construct: butyrylcholinesterase from equine serum; purchased Sigma-Aldrich, Hamburg, Germany; host or cells: equine serum
Sequence (P81908 whole entry): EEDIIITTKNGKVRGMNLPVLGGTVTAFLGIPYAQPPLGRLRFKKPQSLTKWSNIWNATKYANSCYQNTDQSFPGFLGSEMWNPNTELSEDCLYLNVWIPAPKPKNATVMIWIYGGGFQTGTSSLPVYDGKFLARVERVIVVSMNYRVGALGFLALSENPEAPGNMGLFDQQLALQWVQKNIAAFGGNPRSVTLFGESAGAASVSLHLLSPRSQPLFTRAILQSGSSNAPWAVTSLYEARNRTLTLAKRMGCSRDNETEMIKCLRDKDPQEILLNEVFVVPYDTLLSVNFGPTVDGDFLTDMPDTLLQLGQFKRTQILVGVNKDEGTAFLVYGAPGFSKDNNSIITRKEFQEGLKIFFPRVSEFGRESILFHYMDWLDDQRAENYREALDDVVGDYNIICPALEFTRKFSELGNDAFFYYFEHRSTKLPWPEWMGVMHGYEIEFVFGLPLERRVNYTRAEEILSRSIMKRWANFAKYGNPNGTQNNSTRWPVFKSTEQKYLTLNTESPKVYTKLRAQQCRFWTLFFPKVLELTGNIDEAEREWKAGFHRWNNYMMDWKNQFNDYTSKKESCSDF
assayName: biochemical
measurementConditions: IC50(AChE)/IC50(BChE)
Response field accepts a number only; no unit should be typed.

Look at this compound and give its reported SI BChE. O=C(N/N=C/c1c(O)cc(O)cc1O)C1CCN(Cc2ccccc2)C1 (centres unmarked)
1.96

Entry under review: COc1ccc2[nH]cc(/C=N/NC(=O)Cc3c[nH]c4ccccc34)c2c1 . Reported SI BChE?
47.34

// query SI BChE value for entry CC(C)(C)OC(=O)NCC(=O)N/N=C/c1cn(Cc2ccccc2)c2ccccc12
3.05

// lookup SI BChE for O=C(Cc1c[nH]c2ccccc12)N/N=C/C1CCN(Cc2ccccc2)CC1
1.35

Now for a further compound.
Form field: reported SI BChE of Cc1ccc(S(=O)(=O)N/N=C/c2c[nH]c3ccc(OCc4ccccc4)cc23)cc1
1.15

* * *

System: CCL-1 cells
assayName: MTT cytotoxicity, CCL-1 normal fibroblasts
Format: cell-based, murine
measurementConditions: Mus musculus, Fibroblast, 72 h, read-out: CCL-1 IC50
pIC50: −log10 of the molar value.
measurementName: pIC50

Can you look up pIC50 on CCL-1 cells for COc1ccc2c3c1O[C@H]1C[C@@H](O)C=C[C@@]31CCN(C)C2 [Galanthamine, reference compound] ?
< 3.52

* * *

experimentalSystem: Acetylcholinesterase from Electrophorus electricus (Electrophorus electricus, UniProt O42275)
Sequence (O42275 24-633): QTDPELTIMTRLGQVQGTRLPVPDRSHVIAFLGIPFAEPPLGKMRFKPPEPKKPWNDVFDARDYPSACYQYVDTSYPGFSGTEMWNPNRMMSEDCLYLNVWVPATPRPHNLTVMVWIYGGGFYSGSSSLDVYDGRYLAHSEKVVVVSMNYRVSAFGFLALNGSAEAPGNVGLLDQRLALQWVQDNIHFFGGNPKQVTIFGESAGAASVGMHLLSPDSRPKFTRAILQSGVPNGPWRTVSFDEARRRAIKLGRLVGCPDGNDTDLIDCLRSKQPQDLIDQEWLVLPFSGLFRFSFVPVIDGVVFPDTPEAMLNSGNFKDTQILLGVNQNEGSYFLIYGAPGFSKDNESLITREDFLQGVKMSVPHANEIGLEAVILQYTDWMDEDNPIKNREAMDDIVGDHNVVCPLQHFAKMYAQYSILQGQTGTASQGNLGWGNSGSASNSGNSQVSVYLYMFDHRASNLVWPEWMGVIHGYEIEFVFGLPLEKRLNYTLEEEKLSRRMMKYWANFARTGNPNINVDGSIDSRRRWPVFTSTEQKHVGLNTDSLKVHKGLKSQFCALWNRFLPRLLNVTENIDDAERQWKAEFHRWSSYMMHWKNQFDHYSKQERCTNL
Listed below: IC50 values for each entry.

Some entries whose results are on file:
Look up IC50 for this compound: O=C(N/N=C/c1ccc(O)cc1)C1CCN(Cc2ccccc2)C1 (centres unmarked) [3e]
> 1000 µM

// IC50 lookup, key: COc1ccc(/C=N/NS(=O)(=O)c2ccccc2)cc1OC [5i]
> 1000 µM

Recorded IC50 of COc1ccc(S(=O)(=O)N/N=C/c2cn(C)c3ccc(OC)cc23)cc1 [5b] , please.
> 1000 µM

Please look up its IC50: Cc1ccc(S(=O)(=O)N/N=C/c2c[nH]c3ccc(OCc4ccccc4)cc23)cc1 [5j]
> 1000 µM

# get_value(readout='IC50', item= O=C(N/N=C/c1ccc(O)c(O)c1)C1CCN(Cc2ccccc2)C1 (centres unmarked) [3g] )
> 1000 µM

// next entry
Consider the compound COc1cc(/C=N/NC(=O)c2ccc(O)cc2O)ccc1O [3r] and give its measured IC50.
> 1000 µM

* * *

assayName: Lipid peroxidation in linoleic acid system, FTC method
measurementConditions: 10 mM compound, 500 nm, Day 5
measurementName: Absorbance Day 5
Returns: the value as a bare number; no unit string appended.

Solved cases below.
Could you share which Absorbance Day 5 value was measured for O=C(N/N=C/C1CCN(Cc2ccccc2)CC1)c1c[nH]c2ccccc12 [3c] ?
0.74

Name the reported Absorbance Day 5 value associated with the compound O=S(=O)(N/N=C/c1c[nH]c2ccc(OCc3ccccc3)cc12)c1ccccc1 [5k]
0.87

Recorded Absorbance Day 5 for O=S(=O)(N/N=C/C1CCN(Cc2ccccc2)CC1)c1ccccc1 [5a] , please?
1.10

Kindly consider the entry below.
I have this compound here, COc1ccc2[nH]cc(CCNC(C)=O)c2c1 [Melatonin, reference compound] , and I need its recorded Absorbance Day 5.
0.94

* * *

experimentalSystem: butyrylcholinesterase from equine serum (Equus caballus)
Construct: butyrylcholinesterase from equine serum; purchased Sigma-Aldrich, Hamburg, Germany; host or cells: equine serum
assayName: biochemical
measurementName: IC50

Would you kindly share the measured IC50 for COc1ccc2[nH]cc(CCNC(C)=O)c2c1 [Melatonin, reference compound] ?
> 1000 µM

* * *

PAMPA BBB −logPe for assorted compounds
assayName: PAMPA-BBB permeability
Type: in vitro ADME
measurementConditions: experimentally measured BBB permeability
No unit in the answer, please; the number alone is enough.

For orientation, consider the following solved cases.
Please give the measured PAMPA BBB −logPe for this compound: O=S(=O)(N/N=C/C1CCN(Cc2ccccc2)CC1)c1ccccc1 [5a]
4.749

Which PAMPA BBB −logPe is listed for O=C(Cc1c[nH]c2ccccc12)N/N=C/C1CCN(Cc2ccccc2)CC1 [3a] ?
4.420

// returns reported PAMPA BBB −logPe for input O=C(N/N=C/C1CCN(Cc2ccccc2)CC1)c1ccc(O)cc1O [3b]
5.873

Form field: reported PAMPA BBB −logPe of O=C(N/N=C/C1CCN(Cc2ccccc2)CC1)c1c[nH]c2ccccc12 [3c]
4.466

Look at this compound and give its reported PAMPA BBB −logPe. CC(C)(C)OC(=O)NCC(=O)N/N=C/c1cn(Cc2ccccc2)c2ccccc12 [3m]
4.377

Let us move to another entry and its PAMPA BBB −logPe.
Entry COc1ccc2[nH]cc(/C=N/NC(=O)Cc3c[nH]c4ccccc34)c2c1 [3n] has what PAMPA BBB −logPe?
4.084

* * *

experimentalSystem: butyrylcholinesterase from equine serum (Equus caballus)
Construct: butyrylcholinesterase from equine serum; purchased Sigma-Aldrich, Hamburg, Germany; host or cells: equine serum
assayName: biochemical
measurementConditions: 1 mM solution of the tested compound; read-out: Activity [%] (inhibition percentage of BChE)
measurementName: inhibition at 1000 µM (%)
Return type: number; implicit unit %.

For orientation, consider the following solved cases.
For COc1ccc(/C=N/NS(=O)(=O)c2ccccc2)cc1OC , what is its reported inhibition at 1000 µM?
7.67

If you can, please state the reported inhibition at 1000 µM value of O=S(=O)(N/N=C/C1CCN(Cc2ccccc2)CC1)c1ccccc1 .
79.4

Requested read-out: inhibition at 1000 µM. Entry: O=C(N/N=C/c1ccc(O)cc1O)C1CCN(Cc2ccccc2)C1 (stereo not drawn)
57.2

Any idea what inhibition at 1000 µM was measured for O=C(N/N=C/C1CCN(Cc2ccccc2)CC1)c1ccc(O)cc1O ?
75.9

Could you tell me which inhibition at 1000 µM is on file for O=S(=O)(N/N=C/c1c[nH]c2ccc(OCc3ccccc3)cc12)c1ccccc1 ?
4.97

Need inhibition at 1000 µM, item COc1ccc(S(=O)(=O)N/N=C/c2c[nH]c3ccc(OC)cc23)cc1
18.2

Which inhibition at 1000 µM reading was recorded for the compound Cc1ccc(S(=O)(=O)N/N=C/c2cn(Cc3ccccc3)c3ccccc23)cc1 ?
40.6

Param item = COc1ccc2c(c1)c(/C=N/NC(=O)CNC(=O)OC(C)(C)C)cn2C ; retrieve measured inhibition at 1000 µM.
30.3

Continuing:
State the recorded inhibition at 1000 µM for this entry: O=C(N/N=C/c1ccc(O)cc1)C1CCN(Cc2ccccc2)C1 (stereo not drawn)
12.4

Item under review: COc1cc(/C=N/NC(=O)c2ccc(O)cc2O)ccc1O . Reported inhibition at 1000 µM?
16.9

Entry under review: COc1cc(/C=N/NC(=O)Cc2c[nH]c3ccccc23)ccc1O . Reported inhibition at 1000 µM?
13.9

# inhibition at 1000 µM lookup, item Cc1ccc(S(=O)(=O)N/N=C/c2c[nH]c3ccc(OCc4ccccc4)cc23)cc1
56.9

Could you share which inhibition at 1000 µM value was measured for O=C(N/N=C/C1CCN(Cc2ccccc2)CC1)c1c[nH]c2ccccc12 ?
77

Which measured inhibition at 1000 µM value corresponds to Cn1cc(/C=N/NC(=O)CNC(=O)OC(C)(C)C)c2ccccc21 ?
39.1

Entry under review: COc1ccc(C(=O)N/N=C/C2CCN(Cc3ccccc3)CC2)cc1 . Reported inhibition at 1000 µM?
72.9

Find the recorded inhibition at 1000 µM belonging to COc1ccc(/C=N/NC(=O)Cc2c[nH]c3ccccc23)cc1OC and report it.
24

# lookup: inhibition at 1000 µM of COc1ccc2[nH]cc(/C=N/NC(=O)Cc3c[nH]c4ccccc34)c2c1
73.7

Recorded inhibition at 1000 µM of CC(C)(C)OC(=O)NCC(=O)N/N=C/c1cn(Cc2ccccc2)c2ccccc12 , please.
59.4

* * *

assayName: DPPH radical scavenging activity
measurementConditions: 300 μL of 5 mM compound in MeOH, 30 min, 517 nm
measurementName: DPPH Activity (%)
Just the number in %, nothing appended.

Here are 2 molecules together with their reported answers.
What value of measured DPPH Activity is listed for COc1cc(/C=N/NC(=O)Cc2c[nH]c3ccccc23)ccc1O ?
20.40

Data request, read-out DPPH Activity, for Cc1cc(C(C)(C)C)c(O)c(C(C)(C)C)c1 [BHT, butylated hydroxytoluene, reference compound]
7.78

---
# lookup: DPPH Activity of COc1ccc(/C=N/NS(=O)(=O)c2ccccc2)cc1OC
16.21

* * *

experimentalSystem: Acetylcholinesterase from Electrophorus electricus (Electrophorus electricus, UniProt O42275)
Construct: purchased Sigma-Aldrich, Hamburg, Germany
assayName: biochemical
Format: biochemical
measurementConditions: 1 mM solution of the tested compound; read-out: Activity [%] (inhibition percentage of AChE)
Listed next: entries and their corresponding inhibition at 1000 µM.
Give just the numeric value; % need not be written.

The cases that follow already have their inhibition at 1000 µM on record.
Fill in the blank: the reported inhibition at 1000 µM of COc1ccc(/C=N/NS(=O)(=O)c2ccc(C)cc2)cc1OC is ____.
10.5

# lookup: inhibition at 1000 µM of O=C(N/N=C/c1ccc(O)cc1O)C1CCN(Cc2ccccc2)C1 (stereo not shown)
64.1

Item COc1ccc2c(c1)c(/C=N/NC(=O)CNC(=O)OC(C)(C)C)cn2C has what recorded inhibition at 1000 µM?
3.26

May I ask what inhibition at 1000 µM has been recorded for O=S(=O)(N/N=C/C1CCN(Cc2ccccc2)CC1)c1ccccc1 ?
77

// query inhibition at 1000 µM value for entry O=C(N/N=C/C1CCN(Cc2ccccc2)CC1)c1c[nH]c2ccccc12
72

# input compound: COc1ccc(C(=O)N/N=C/C2CCN(Cc3ccccc3)CC2)cc1 ; wanted: its inhibition at 1000 µM
81.2

Param item = COc1ccc2[nH]cc(/C=N/NC(=O)Cc3c[nH]c4ccccc34)c2c1 ; retrieve measured inhibition at 1000 µM.
29.2

Entry under review: O=C(N/N=C/c1ccc(O)cc1)C1CCN(Cc2ccccc2)C1 (stereo not shown) . Reported inhibition at 1000 µM?
3.84

Requested field: inhibition at 1000 µM. Item: COc1cc(/C=N/NC(=O)Cc2c[nH]c3ccccc23)ccc1O
12.8

More entries:
Reported inhibition at 1000 µM, compound O=C(N/N=C/c1ccc(O)c(O)c1)C1CCN(Cc2ccccc2)C1 (stereo not shown) : ____
2.74
